Assignment: determine reported EC50 for the given molecules.
# Test system: L-363 cells
# Procedure summary: Biological Assay C: antiproliferative activity on L-363 cells (CellTiter-Glo)
# Type: cell-based
# Assay setup: Homo sapiens, 72 hr treatment
Give bare numbers, in nM.

Guide cases for EC50, answers given:
[2H]C([2H])([2H])C(O)(C#Cc1cc2c(cn1)c(C1CCN(C3CC3)CC1)cn2-c1ccnc(N)n1)C([2H])([2H])[2H] [Compound 45] :: 8.3
[2H]C([2H])([2H])C(O)(C#Cc1cc2c(cn1)c(C1CCN(CCC(F)(F)F)CC1)cn2-c1ccnc(N)n1)C([2H])([2H])[2H] [Compound 50] :: 23
CC(O)(C#Cc1cc2c(cn1)c(C1CCN(CCCF)CC1)cn2-c1nc(N)ncc1F)C1CC1 (stereo not shown) [Compound 47] :: 113

Lab note: next molecule to report on.
## Input Specify measured EC50 for Cc1cnc(N)nc1-n1ccc2cnc(C#CC(C)(C)O)cc21 [Compound 11] .
## Output 3770

---

# Test system: L-363 cells
# Procedure summary: Biological Assay C: antiproliferative activity on L-363 cells (CellTiter-Glo)
# Format: cell-based
# Assay setup: Homo sapiens, 72 hr treatment
Assignment: determine reported pEC50 for the given molecules.
Numbers only, as −log10 of the molar value.

Reference set (10 entries):
CC(O)(C#Cc1cc2c(ccn2-c2ccnc(N)n2)cn1)c1nccs1 (centres unmarked) :: 5.53
CC(C)(O)C#Cc1cc2c(cn1)c(CCCO)cn2-c1nc(N)ncc1F :: 6.56
CC(O)(C#Cc1cc2c(cn1)c(C1CCN(CCC(F)(F)F)CC1)cn2-c1ccnc(N)n1)C1CC1 (centres unmarked) [Compound 43] :: 6.53
[2H]C([2H])([2H])C(O)(C#Cc1cc2c(cn1)c(C1CCN(CCC(F)(F)F)CC1)cn2-c1nc(N)ncc1F)C([2H])([2H])[2H] :: 6.89
Nc1ncc(Cl)c(-n2ccc3cnc(C#CC4(O)CC4)cc32)n1 :: 5.81
CC(O)(C#Cc1cc2c(cn1)c(C1CCN(C3CC3)CC1)cn2-c1ccnc(N)n1)C1CC1 (centres unmarked) :: 7.01
CC(C)(O)C#Cc1cc2c(cn1)c(CCCO)cn2-c1ccnc(N)n1 :: 6.67
CCc1cn(-c2ccnc(N)n2)c2cc(C#CC(C)(C)O)ncc12 :: 7.36
CN1CCC(c2cn(-c3nc(N)ncc3F)c3cc(C#CC(C)(C)O)ncc23)CC1 :: 6.98
CC(C)(O)C#Cc1cc2c(cn1)c(CC#N)cn2-c1ccnc(N)n1 :: 6.50

Please state pEC50 for every molecule in the list that follows.
1. CC(C)(O)C#Cc1cc2c(cn1)c(/C=C/C#N)cn2-c1ccnc(N)n1
2. Nc1ncc(F)c(-n2ccc3cnc(C#CC4(O)CCCC4)cc32)n1
3. Nc1ncc(Cl)c(-n2ccc3cnc(C#CC4(O)CCCC4)cc32)n1

## Output
1. 6.02
2. 5.37
3. 4.81

---

# Tested on: JJN-3 cells
# Procedure summary: Biological Assay C: antiproliferative activity on JJN-3 cells (CellTiter-Glo)
# Assay type: cell-based
# Assay setup: Homo sapiens, 72 hr treatment
Record form. Attribute: EC50. Fill in for each entry.
Answers are plain numbers, in nM.

Provide EC50 for all items below, preserving their order.
1. CC(O)(C#Cc1cc2c(cn1)c(C1CCN(CCC(F)(F)F)CC1)cn2-c1nc(N)ncc1F)C1CC1 (stereo not shown)
2. CC(O)(C#Cc1cc2c(cn1)c(C1CCN(CCC(F)(F)F)CC1)cn2-c1ccnc(N)n1)C1CC1 (single isomer, unassigned) [Compound 51]
3. CC(C)(O)C#Cc1cc2c(ccn2-c2nc(N)ncc2Cl)cn1
4. [2H]C([2H])([2H])C(O)(C#Cc1cc2c(cn1)c(C1CCN(CCC(F)(F)F)CC1)cn2-c1ccnc(N)n1)C([2H])([2H])[2H]
5. CNc1nccc(-n2ccc3cnc(C#CC(C)(C)O)cc32)n1
6. CC(C)(O)C#Cc1cc2c(cn1)c(C#N)cn2-c1ccnc(N)n1
7. [2H]C([2H])([2H])C(O)(C#Cc1cc2c(cn1)c(C1CCN(CCC(F)(F)F)CC1)cn2-c1nc(N)ncc1F)C([2H])([2H])[2H]

## Output
1: 1090; 2: 220; 3: 1050; 4: 39; 5: 744; 6: 1450; 7: 231

Data origin, for the record: patent US10005773B2
